procedure.text: in vitro
condition.parameters: rhesus monkey, cryopreserved hepatocytes
outcome.measure: hepatocyte CLint at 1 µM

> print(dat)
                         chemical.structure           outcome.measure                reported
1  Cc1cc(Nc2nc(N(C)c3c(F)cc(S(C)(=O)=O)cc3F)nc(-c3cn(C)cn3)c2C2CC2)n[nH]1  hepatocyte CLint at 1 µM  < 3.8 µL/min/1e6 cells

----------
procedure.text: in vivo
condition.parameters: cynomolgus monkey, po, 1.25 mg/kg
outcome.measure: bioavailability at 24 h (%)

> print(dat)
                         chemical.structure          outcome.measure  reported
1  Cc1cc(Nc2nc(N(C)c3c(F)cc(S(C)(=O)=O)cc3F)nc(-c3cn(C)cn3)c2C2CC2)n[nH]1  bioavailability at 24 h        96

----------
procedure.text: in vitro
condition.parameters: mouse, cryopreserved hepatocytes
outcome.measure: hepatocyte CLint at 1 µM

> print(dat)
                         chemical.structure                reported
1  Cc1cc(Nc2nc(N(C)c3c(F)cc(S(C)(=O)=O)cc3F)nc(-c3cn(C)cn3)c2C2CC2)n[nH]1  < 3.8 µL/min/1e6 cells

----------
Each entry below carries its recorded microsomal CLint at 1 µM.
procedure.text: in vitro
condition.parameters: mouse, liver microsomes
outcome.measure: microsomal CLint at 1 µM

> print(dat)
                         chemical.structure           outcome.measure         reported
1  COc1c(Nc2cc(C)[nH]n2)nc(Sc2ccc(S(=O)(=O)Cc3cccc([N+](=O)[O-])c3F)cc2F)nc1N1CCCCC1  microsomal CLint at 1 µM  > 416 µL/min/mg
2  COc1c(Nc2cc(C)[nH]n2)nc(Sc2ccc(S(C)(=O)=O)cc2F)nc1N1CCOCC1  microsomal CLint at 1 µM     31 µL/min/mg
3  COc1c(Nc2cc(C)[nH]n2)nc(Sc2ccc(S(C)(=O)=O)cc2)nc1-c1cnn(C)c1  microsomal CLint at 1 µM  < 7.7 µL/min/mg
4  Cc1cc(Nc2nc(N(C)c3c(F)cc(S(C)(=O)=O)cc3F)nc(-c3cn(C)cn3)c2C2CC2)n[nH]1  microsomal CLint at 1 µM  < 7.7 µL/min/mg
5  COc1c(Nc2cc(C)[nH]n2)nc(Sc2ccc(S(C)(=O)=O)cc2F)nc1N1CCCCC1  microsomal CLint at 1 µM     47 µL/min/mg
6  COc1c(Nc2cc(C)[nH]n2)nc(Sc2ccc(S(C)(=O)=O)cc2F)nc1-c1cnn(C)c1  microsomal CLint at 1 µM  < 7.7 µL/min/mg

----------
Each entry below carries its recorded clearance at 24 h.
procedure.text: in vivo
condition.parameters: female, CD-1, mouse, iv, 1 mg/kg
outcome.measure: clearance at 24 h (mL/min/kg)

> print(dat)
                         chemical.structure    outcome.measure  display.unit  reported
1  Cc1cc(Nc2nc(N(C)c3c(F)cc(S(C)(=O)=O)cc3F)nc(-c3cnn(C)c3)c2C2CC2)n[nH]1  clearance at 24 h     mL/min/kg         7
2  Cc1cc(Nc2nc(N(C)c3c(F)cc(S(C)(=O)=O)cc3F)nc(-c3cn(C)nc3C)c2C2CC2)n[nH]1  clearance at 24 h     mL/min/kg        10
3  Cc1cc(Nc2nc(N(C)c3c(F)cc(S(C)(=O)=O)cc3F)nc(-c3cnn(C)c3CO)c2C2CC2)n[nH]1  clearance at 24 h     mL/min/kg        15
4  Cc1cc(Nc2nc(N(C)c3c(F)cc(S(C)(=O)=O)cc3F)nc(-c3cn(C)cn3)c2C2CC2)n[nH]1  clearance at 24 h     mL/min/kg        11
5  Cc1cc(Nc2nc(N(C)c3c(F)cc(S(C)(=O)=O)cc3F)nc(-c3cn4c(n3)COCC4)c2C2CC2)n[nH]1  clearance at 24 h     mL/min/kg         3
6  Cc1cc(Nc2nc(N(C)c3c(F)cc(S(C)(=O)=O)cc3F)nc(-c3cc(C(C)(C)O)n(C)n3)c2C2CC2)n[nH]1  clearance at 24 h     mL/min/kg        12
7  Cc1cc(Nc2nc(N(C)c3c(F)cc(S(C)(=O)=O)cc3F)nc(-c3cn(C)c(C4CC4)n3)c2C2CC2)n[nH]1  clearance at 24 h     mL/min/kg         9
